- System: CMV
- Type: cell-based, cytomegalovirus
- TEST PARAMETERS: read-out: CMV (Elisa) EC50
pEC50: −log10 of the molar value.
ASSAY METRIC: pEC50

GET /values?readout=pEC50&item= CCC(NC(=O)NNS(=O)(=O)c1ccc(C)cc1)(C(F)(F)F)C(F)(F)F < 4.70

----------
Recorded measurements of EC50, one per entry
- Tested on: Candide I
- TEST: microbe, parasite or virus in culture
- Type: cell-based, Junin virus (vaccine strain)
- TEST PARAMETERS: Mammarenavirus juninense, read-out: Candide I

>>> val("CC(=O)c1ccc(S(=O)(=O)NNC(=O)NC(C)(C(F)(F)F)C(F)(F)F)cc1")
"> 5 µM"

Consider the additional molecule presented here.
GET /values?readout=EC50&item= Cc1nn(C)c(Cl)c1S(=O)(=O)NNC(=O)NC(C)(C(F)(F)F)C(F)(F)F 1 to 5 µM

----------
- System: Junin virus
- Assay type: cell-based
- TEST PARAMETERS: read-out: Junin (Plaque reduction) EC50
Recorded measurements of EC50, one per entry
Write the answer as a number in µM, unit excluded.

>>> val("CCC(NC(=O)NNS(=O)(=O)c1ccc(C)cc1)(C(F)(F)F)C(F)(F)F")
0.15

GET /values?readout=EC50&item= CC(NC(=O)NNS(=O)(=O)c1ccc(OC(F)F)cc1)(C(F)(F)F)C(F)(F)F 0.3

----------
- System: Vero cells
ASSAY METRIC: CC50

GET /values?readout=CC50&item= CC(NC(=O)NNS(=O)(=O)c1ccc(OC(F)F)cc1)(C(F)(F)F)C(F)(F)F > 50 µM

----------
- Test system: HSV-1
- Format: cell-based, herpes simplex virus 1
- TEST PARAMETERS: read-out: HSV-1 (CPE) EC50
pEC50: −log10 of the molar value.
ASSAY METRIC: pEC50

GET /values?readout=pEC50&item= CCC(NC(=O)NNS(=O)(=O)c1ccc(C)cc1)(C(F)(F)F)C(F)(F)F [ST-336] < 4.70
